Data provenance: patent US20050096323A1

molecular target: urokinase (Homo sapiens); construct: purchased Sigma; assay: Urokinase inhibition constant (Ki), fluorogenic substrate assay; assay type: biochemical; settings: substrate N-Cbz-Gly-Gly-Arg-AMC
Please go through the items and note down their pKi.
pKi is a log-scale quantity: -log10 of the concentration expressed in molar.

Lab note: CC1CNc2c(cccc2S(=O)(=O)N2C(=O)C3CC(C)CCN3C(=O)C2CCCNC(=N)N)C1 (centres unmarked) gave pKi of 3.53

Lab note: CC1CNc2c(cccc2S(=O)(=O)N[C@@H](CCCNC(=N)N)C(=O)N2CC[C@@H](C)C[C@@H]2C(=O)O)C1 (some centres unmarked) [Argatroban, reference compound] gave pKi of 3.00

###

assay: Acute toxicity, intravenous injection, determination of LD50; format: in vivo, mice; conditions: both sexes, ICR, mouse, in vivo, iv, ICR mice, single i.v., Bliss method
QUANTITY MEASURED: 95% confidence interval of LD50 at 2 weeks

Lab note: CC1CNc2c(cccc2S(=O)(=O)N2C(=O)C3CC(C)CCN3C(=O)C2CCCNC(=N)N)C1 (stereo not shown) gave 95% confidence interval of LD50 at 2 weeks of 10 to 11.9 mg/kg

###

assay: Acute toxicity, intravenous injection, determination of LD50; assay type: in vivo, mice; details: both sexes, ICR, mouse, in vivo, iv, ICR mice, single i.v., observed 2 weeks, Bliss method
QUANTITY MEASURED: LD50 at 2 weeks (mg/kg)
Supply the numeric figure in mg/kg, leaving out any unit text.

Lab note: CC1CNc2c(cccc2S(=O)(=O)N2C(=O)C3CC(C)CCN3C(=O)C2CCCNC(=N)N)C1 (stereo not shown) [NPI1999] gave LD50 at 2 weeks of 10.9

###

Please go through the items and note down their pKi.
target: thrombin (Homo sapiens, UniProt P00734); construct: purchased Sigma; test: Thrombin inhibition constant (Ki), fluorogenic substrate assay; format: biochemical; conditions: Table II, method of example 9
pKi is a log-scale quantity: -log10 of the concentration expressed in molar.

Entry CC1CNc2c(cccc2S(=O)(=O)N2C(=O)C3CC(c4ccccc4)CCN3C(=O)C2CCCNC(=N)N)C1 (stereo not shown) [compound 3] , thrombin (Homo sapiens, UniProt P00734) data, pKi value: 6.04

Entry CC1CNc2c(cccc2S(=O)(=O)N2C(=O)C3CC(C(C)(C)C)CCN3C(=O)C2CCCNC(=N)N)C1 (stereo not shown) [compound 4] , thrombin (Homo sapiens, UniProt P00734) data, pKi value: 5.80

Entry CCC1CCN2C(=O)C(CCCNC(=N)N)N(S(=O)(=O)c3cccc4c3NCC(C)C4)C(=O)C2C1 (stereo not shown) [compound 2] , thrombin (Homo sapiens, UniProt P00734) data, pKi value: 7.21
